Listed molecules paired with reported melting point
recordedMetric: melting point

| molecule | recordedMetric | resultValue |
| --- | --- | --- |
| CC(C)(C)c1ccc(C(=O)Nc2cn3nc(NC4CCNCC4)ccc3n2)cc1 | melting point | 242 to 243 °C |
| CC(C)(C)c1ccc(C(=O)Nc2cn3nc(NC4CCCCC4)ccc3n2)cc1 | melting point | 296 to 297 °C |
| CC(O)c1ccc2nc(NC(=O)c3ccc(C(C)(C)C)cc3)cn2c1 (stereo not shown) | melting point | 249 to 250 °C |
| CC(C)(C(=O)NCC#N)c1ccc(C(=O)Nc2cn3cc(Cl)ccc3n2)cc1 | melting point | 268 to 269 °C |
